Hello, the source for this data is the supplement of paper PMC10724198, in case you need it.

Examples of sequences with documented protein stability index follow.
Test system: Saccharomyces cerevisiae;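 note: PSI is a weighted mean of sequencing reads over stability bins, variants kept only with over 10 reads, mCherry proximal and sfGFP distal, peptide attached via GGGS linker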
Test: protein stability index of tFT-peptide fusion (C-terminal peptide) (PSI (0-1 scale)); higher = more stable (slower turnover)
Conditions: genetic background: doa10 deletion; temperature: 30 C
Give a plain numeric answer without units written out.

Below: 4 sequences and their reported protein stability index.
sequencetext=FLIFGMVDFAVV testreadout="protein stability index" assayresult=0.202
sequencetext=FILLTLVFGCAS testreadout="protein stability index" assayresult=0.196
sequencetext=LISRGNRALFCI testreadout="protein stability index" assayresult=0.204
sequencetext=FPLGAQTWLCLS testreadout="protein stability index" assayresult=0.199

Lab note: sequence FFRFCFLLLASS tested on Saccharomyces cerevisiae; recorded protein stability index was 0.197

Lab note: sequence WCVCVSMRMIAI tested on Saccharomyces cerevisiae; recorded protein stability index was 0.202
